- System: H460
- protocol-summary: 2D cell proliferation assay (Alamar Blue), H460
- Assay type: cell-based, human
- test-conditions: Homo sapiens, NCI-H460; 2D, H460, 72 h; read-out: IC50
readout-kind: IC50

Query: Under H460: IC50 value of COc1ccc(-c2ccc3cc(C(=O)O)ccc3c2)cc1C12CC3CC(CC(C3)C1)C2 ?
Response: 2 µM

* * *

- system: recombinant wild type human EGFR kinase domain (Homo sapiens, UniProt P00533)
- Construct: A recombinant wild type human EGFR kinase domain expressed in Sf9 insect cells; GST
- Sequence (P00533 712-979 limits assumed): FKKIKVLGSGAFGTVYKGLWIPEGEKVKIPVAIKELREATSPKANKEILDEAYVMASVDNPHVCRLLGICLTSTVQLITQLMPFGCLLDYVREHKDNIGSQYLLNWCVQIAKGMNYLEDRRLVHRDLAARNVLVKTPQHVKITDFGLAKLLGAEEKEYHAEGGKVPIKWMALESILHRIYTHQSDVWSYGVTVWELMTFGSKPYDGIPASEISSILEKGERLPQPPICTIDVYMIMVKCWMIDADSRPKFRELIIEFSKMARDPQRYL
- protocol-summary: Radiometric protein kinase enzymatic assay
- test-conditions: text value (FIG. 1)
readout-kind: IC50
The reply should consist of the numeric value with the unit placed after it.

Query: Reported IC50, compound COc1ccc(-c2ccc3cc(C(=O)O)ccc3c2)cc1C12CC3CC(CC(C3)C1)C2 : ____
Response: 515 nM
